From: the supplement of paper PMC10567573

B1: TRIM63 (parent)
chain: ANPYWTSRGSSVSMSGGRFRCPTC

Variants of: B1
assay_details: protein stability index of a GFP-peptide fusion (GPS, HEK-293T) (PSI 1-6); higher = more stable;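 also: lentivirally expressed fusions sorted by FACS into six bins by GFP to DsRed ratio, PSI derived from sequencing read proportions per bin multiplied by bin number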
details: c terminus: a fixed tail appended
quantity_name: protein stability index
Answers are plain numbers.

Observe how each entry below is paired with its result.
residue_change: R18E
protein stability index: 2.48

residue_change: S11F
protein stability index: 2.15

residue_change: Y4M
protein stability index: 1.75

residue_change: V12R
protein stability index: 1.32

residue_change: S7I
protein stability index: 3.16

residue_change: G9Q
protein stability index: 1.3

residue_change: G16P
protein stability index: 2.08

residue_change: C21G
protein stability index: 2.86

residue_change: G16T
protein stability index: 1.96

residue_change: W5E
protein stability index: 2.25

Okay, now this variant:
Query (variant): N2E ; field requested: protein stability index
2.51
